# System: Candida albicans
# Measurement protocol: Antimicrobial activity against Candida albicans at 1.25 ug/mL by agar diffusion method
# Format: functional
# Run parameters: read-out: IZ
Quick reference for zone of inhibition at 1.25 µg/mL among some molecules
Readout label: zone of inhibition at 1.25 µg/mL (mm)

Chemical string	Experimental target	Readout label	Obs value
O=C1/C(=N/Nc2ccc([N+](=O)[O-])cc2)CCCc2ccccc21	Candida albicans	zone of inhibition at 1.25 µg/mL	0
CC(=O)c1ccc(N/N=C2\CCCc3ccccc3C2=O)cc1	Candida albicans	zone of inhibition at 1.25 µg/mL	3
O=C1/C(=N/Nc2cccc(Cl)c2)CCCc2ccccc21	Candida albicans	zone of inhibition at 1.25 µg/mL	7
CN(C/C=C/C#CC(C)(C)C)Cc1cccc2ccccc12	Candida albicans	zone of inhibition at 1.25 µg/mL	6
O=C1/C(=N/Nc2cccc([N+](=O)[O-])c2)CCCc2ccccc21	Candida albicans	zone of inhibition at 1.25 µg/mL	5
Cc1cccc(N/N=C2\CCCc3ccccc3C2=O)c1	Candida albicans	zone of inhibition at 1.25 µg/mL	2
Cc1ccc(N/N=C2\CCCc3ccccc3C2=O)cc1	Candida albicans	zone of inhibition at 1.25 µg/mL	2
c1ccc2c(c1)CCCc1nnc3nncn3c1-2	Candida albicans	zone of inhibition at 1.25 µg/mL	0

Provenance of the data: ChEMBL document CHEMBL1152689
